# System: RARb:RXRa (NR concentration 270 nM, RXRa partner concentration 90 nM)
# protocolNotes: PBM binding z-score (relative to random genomic background probes); higher = stronger binding; sequences stand for … in GC…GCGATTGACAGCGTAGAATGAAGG
Binned PBM binding z-score; ranges: b0: < 0.6; b1: ≥ 0.6 and < 3; b2: ≥ 3

Field: example entries. Status: answers known.
{"columns": ["residues", "labelClass"],
 "data": [
  ["ACTTCCGGGTCAACGAGGTTATAGCACGCGTATA", "b2"],
  ["CCTGGTTGGTCAGGAGGTCACACACCGGATATGA", "b2"],
  ["AGAACGTGGGCACGCTGAGTTGATAGCAGAGTAG", "b0"],
  ["CTACCTAGGTGAACAAGGTCGTTGATTACTATTC", "b1"],
  ["ATCGAAAGGTCGAGGTGAGTATGGAGAAAGGGAA", "b2"]
]}

Using the reported PBM binding z-score, which band applies to CCTACTGGGCCATCAGCTCATTGATATCAACGTT ? b0

Also check CATACAGTGTCAGCTAGGCCAGAGTAGGGACGGC b1

Also check TCTCGGGGGACACGAAAGGTCAGAGCTCGACATC b2

Also check ATCTCTAGGTAACCAAGTTCAGTGCATGCCGAAC b1

Also check ACAGACATGTGATGAAGGTAACTCAGGCTATCAT b0

Also check CCTTACGGATCACGAGGTTATAGCACGACGAGCG b1

Also check CTACCAAGGTGAATAAGGTCGTTGATTACTATTC b1

###

# Test system: RARa:RXR (NR concentration 270 nM, RXRa partner concentration 90 nM)
# protocolNotes: PBM binding z-score (relative to random genomic background probes); higher = stronger binding; sequences stand for … in GC…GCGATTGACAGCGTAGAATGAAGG
Assign PBM binding z-score to each entry below.
Give bare numbers.

Worked examples, 5 sequences total:
{"columns": ["residues", "PBM binding z-score"],
 "data": [
  ["TCAAGTAGGTTAGTCGGGGCATTCAGCCAACATA", 0.739],
  ["AGTTAAAGTTCACTAGGTAACGTAAGATTCAGCT", 2.66],
  ["CAAACTAGGTTAAGGTCAAAGTCGGTTTGTGCCA", 5.71],
  ["ACTCGAAGGACAAAGGTCAGAGCTACGCCAGTGA", 4.28],
  ["ACTAGTAGTTGAGACGAGGGCAACCGATAGGTTG", 0.6]
]}

Okay, here is my list. What is PBM binding z-score for each of these?
1. TCATATAGGTAATACAGGTGAAATTCGGCATCTA
2. GCTGCTAGGTCAAATGATGGTCAGCTAAAGCTCG
3. TCTAGTTGGTCAAAGGTCACATACTCGAAATGCG
4. GCGACTGGGGCTAAGCAGGTTACCATAAGGTTGG
5. CCGACTGGCGCAGAAAGGTTACCATACCATCCGG
6. TCTCTGAGGACACGAAGGTCAGAGCTTTCCAGAG
7. CGTCCAAGGTCAATGCTAGGTCAGTGCAAGCATT

1.2
3.18
7.12
0.266
1.14
2.04
5.52

Okay, here is my list. What is PBM binding z-score for each of these?
1. TCTTGTAGATCAATAGAGGTTCAGAAAGTGCGCT
2. ATCTCTTGGTAAAGTTCAGTGAAAGATCGATAGA
3. TCGAGTAGTTTAGTCGGGGCATTCAGCCAACATA
4. GTACCAAGGTGAATAGGTCGTCGATGAGTAGGCG
5. ACTAGTTGGTCAGCTGAGGTCTCACACAATTCGG
6. ATCTCTAGGTAACCAGGTTCAGTGAATGCCGAAC
7. CGTACAAGGTCAATGCTAGGTCAGTGAAAGCATT

[0.485, 1.63, 0.146, 1.9, 0.165, 0.808, 6.46]

Okay, here is my list. What is PBM binding z-score for each of these?
1. GCTTGTAGATCAAGGTTAAGAAAGACTAAGCTAA
2. TCTGTTAGGTCAGTTGGTCAGCTAACGAGCTGCC
3. TCGAGTAGGTTAGTCCGGGCATTCAGCCAACATA
4. CCTACTGGGCCATCAGGTCATTGTTATCAACGTT

[0.726, 1.29, -0.0826, 2.03]

Okay, here is my list. What is PBM binding z-score for each of these?
1. TCTAGCAGGCCAGAGGGTCGCTCAAGAGGTACGG
2. CGAAATAGGTCATCCAGGACAGTGAATACATTGA
3. CGTCCAAGCTCAGAGAGGTCAGTGAATGCCGAGT

1. -0.208
2. 3.92
3. 2.85
